- TGT: HCV NS3/4A protease complex (BMS strain, genotype 1a) (Hepatitis C virus genotype 1a, UniProt P27958, C1454S)
- Construct: DNA encoding the recombinant HCV NS3/4A protease complex (amino acids 1027 to 1711) for these strains; inferred from the pET21b vector and Ni-NTA purification; made in house; host or cells: Escherichia coli BL21 (DE3), pET21b
- Sequence (P27958 1658-1714, looked up, stated change not applied): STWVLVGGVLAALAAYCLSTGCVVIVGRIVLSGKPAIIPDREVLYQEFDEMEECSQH
- Sequence (P27958 1027-1657, looked up, stated change not applied): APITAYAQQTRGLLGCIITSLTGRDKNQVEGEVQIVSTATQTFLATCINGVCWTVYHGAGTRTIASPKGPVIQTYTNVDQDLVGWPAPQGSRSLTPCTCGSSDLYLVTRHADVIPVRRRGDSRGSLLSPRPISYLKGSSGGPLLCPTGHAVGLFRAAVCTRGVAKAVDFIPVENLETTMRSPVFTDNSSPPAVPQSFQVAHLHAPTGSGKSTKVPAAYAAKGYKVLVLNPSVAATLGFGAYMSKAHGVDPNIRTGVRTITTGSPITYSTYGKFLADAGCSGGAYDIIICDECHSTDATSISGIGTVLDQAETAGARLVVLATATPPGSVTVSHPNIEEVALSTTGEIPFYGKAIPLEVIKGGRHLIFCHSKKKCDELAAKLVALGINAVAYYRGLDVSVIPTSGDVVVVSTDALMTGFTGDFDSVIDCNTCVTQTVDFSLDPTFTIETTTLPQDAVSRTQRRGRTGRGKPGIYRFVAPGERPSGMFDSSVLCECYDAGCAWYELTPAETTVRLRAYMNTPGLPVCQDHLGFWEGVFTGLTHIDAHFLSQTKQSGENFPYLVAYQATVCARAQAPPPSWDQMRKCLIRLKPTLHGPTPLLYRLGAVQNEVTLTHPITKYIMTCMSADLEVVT
- TEST: Recombinant HCV NS3/4A protease complex FRET peptide assay, BMS strain
- Assay type: biochemical
- PROTOCOL_CONDITIONS: IC50 range, NS3/4A BMS Strain
MEASUREMENT_LABEL: IC50

{"columns": ["COMPOUND", "OBSERVED"],
 "data": [
  ["C=C[C@@H]1C[C@]1(NC(=O)[C@@H]1C[C@@H](Oc2cc(-c3ccccc3)nc3cc(OC)ccc23)CN1C(=O)[C@@H](NC(=O)OC(C)(C)C)C(C)(C)C)C(=O)NS(=O)(=O)C1(C=C(C)C)CC1", "< 50 nM"]
]}

API: the following record is the query input.
Lookup: Name the reported IC50 value associated with the compound CCCC1(S(=O)(=O)NC(=O)C2(NC(=O)[C@@H]3C[C@@H](Oc4cc(-c5ccccc5)nc5cc(OC)ccc45)CN3C(=O)[C@@H](NC(=O)OC(C)(C)C)C(C)(C)C)CC23CC3)CC1 (mixture of isomers)
Found: 50 to 500 nM
